# System: TE-1
# run-description: CCK-8 cell viability assay
# Type: cell-based
# recorded-conditions: Homo sapiens; TE-1 cells, CCK-8, 72 hours; read-out: IC50, proliferation inhibition
# Description: Cell viability was measured using Cell Counting Kit-8 (Dojindo, Japan) according to the manufacturer's instructions. […] After 72 hours, CCK-8 reagent (10 μL/well) was added and incubated at 37° C. for 1-2 hours, and absorbance readings at 450 nm were obtained. The IC50 values were calculated by using GraphPad Prism version 6.0.0 (GraphPad Software, San Diego, Calif. USA) for Windows. […]
Give IC50 for every item shown.

Input line: Short answer please: IC50, TE-1, entry Cc1cc(Nc2ncc(Cl)c(Nc3ccccc3S(=O)(=O)C(C)C)n2)c(OC(C)C)cc1C1=CCN(C2CCOCC2)CC1
Output line: 2.21 µM

Input line: TE-1 / IC50 / C=CC(=O)N1CCC[C@@H](n2nc(-c3ccc(Oc4ccccc4)cc3)c3c(N)ncnc32)C1 : value?
Output line: 9.88 µM
